The reported numbers originate from patent US20140148432A1.

System: α1-Adrenergic
Assay: α1-Adrenergic binding, displacement of [3H]-prazosin from brain membranes
Settings: 3 μM test compound, 0.25 nM [3H]-prazosin, Wistar rat brain membranes, duplicate
Description: Binding to the human ether-a-go-go potassium channel (hERG) expressed in HEK293 cells by displacement of 1.5 nM [3H]-astemizole. Each result represents the average of displacement binding experiments done in duplicate at 10 uM of the test compound. Percent displacement of 0.25 nM [3H]-prazosin from Wistar rat brain membranes. Each result represents the average of displacement binding experiments done in duplicate at 3 μM of the test compound.
The following compounds are shown together with reported α1-Adrenergic binding % Displacement @ 3 μM values.

// known answers, use as guide
1. O=C1CCc2cc(OCC3CCN(C(=O)Cc4ccc(Cl)cc4)CC3)ccc2N1 [Compound 15]; 13%
2. O=C1CCc2cc(OCC3CN(C(=O)n4ccnc4)C3)ccc2N1 [Compound 26]; <1%
3. O=C1CCc2cc(OCC3CCN(C(=O)/C=C/c4ccc(Cl)c(Cl)c4)CC3)ccc2N1 [Compound 6]; 28%

Please look at the following compound next.
Query (compound): O=C1CCc2cc(OCC3CN(C(=O)Nc4ccc(Cl)c(Cl)c4)C3)ccc2N1 [Compound 23] ; field requested: α1-Adrenergic binding % Displacement @ 3 μM
25%
